- system.tested: T1, soluble human CD40-MsIgG2a (human, UniProt P25942)
- T1 construct: soluble, fused to mouse IgG2a; also called recombinant human CD40-msG2a chimeric protein; CD40-MsIgG2a (Celldex, 60 kD by SDS-PAGE)
- assay.text: BLI (Octet QKe), antibody captured on anti-human Fc (AHC) biosensors, analyte soluble human CD40-MsIgG2a 3.13 to 0.098 nM, 25 C, 1:1 fit
pKd: −log10 of the molar value.
quantity.name: pKd

>>> measurement("anti-CD40 human monoclonal antibody 3C3 (antibody, human IgG2, kappa, V domains shown, Human IgG2, C-terminal lysine removed; also called anti-CD40 mAb 3C3; CD40 antibody 3C3) VH: QVQLVESGGGVVQPGRSLRLSCAGSGFIFSRYGMYWVRQAPGKGLEWVAVIWYDGSYKYYADSVKGRFTISRDNSKNTLYLQMNSLRAEDTAVYYCARESPWYYFDYWGQGTLVTVSS VL: DIQMTQSPSSLSASVGDRVTITCRASQGISNYLAWYQQKPGKVPKLLIYAASTLQSGVPSRFSGSGSGTDFTLTISSLQPEDVATYYCQKYKSAPFTFGPGTKVDIKR")
10.97
>>> measurement("anti-CD40 human monoclonal antibody 6H6 (antibody, human IgG2, V domains shown, Human IgG2) VH: QVQLVESGGGVVQPGRSLRFSCAASGFTLSSYGMHWVRQAPGKGLEWVAVIWDDGSNKYYADSVKGRFTISRDNSKNTLYLQMNSLRAEDTAVYYCARAGGSGRYYNYFDYWGQGTLVTVSS VL: EIVMTQSPATLSVSPGERATLSCRASQSVRSNLAWYQQKPGQAPRLLIYGASTRATGIPARFSGSGSGTDFTLTISSLQSEDFAVYYCQQHNNWLTFGGGTKVEIK")
11.55
>>> measurement("anti-CD40 human monoclonal antibody 3B6 (antibody, human IgG2, V domains shown, Human IgG2) VH: EVQLLESGGGLVQPGGSLRLSCAASGFTFSSYAMSWVRQAPGKGLEWVSGITGTGGSTYYADSVKGRFTISRDNSKNTLYVQMNSLRAEDTAVYYCAKRAGGSFYYYYGMDVWGQGTTVTVSS VL: DIVMTQSPLSLPVTPGEPASISCRSSQSLLHSTGYNYLDWYLQKPGQSPQLLIYLGSNRASGVPDRFNGSGSGTDFTLKISRVEAEDFGVYYCMQALQTPWTFGHGTKVEIK")
11.10
>>> measurement("anti-CD40 human monoclonal antibody 3G5 (antibody, human IgG2, V domains shown, Human IgG2) VH: QVQLVESGGGVVQPGKSLRLSCAASGFTFSSNGIHWVRQAPGKGLEWVAVIWSDGSNKFYADSVKGRFTISRDNSKNTLYLQMNSLRAEDTAVYYCARASGSGSYYNFFDYWGQGTLVTVSS VL: EIVMTQSPATLSVSPGERATLSCRASQSVRSNLAWYQQKPGQAPRLLIYGASTRATGIPARFSGSGSGTEFTLTINSLQSEDFAVYYCQQHNKWITFGQGTRLEIK")
11.48
